Cited source for all entries: ChEMBL document CHEMBL3988442

Collected Percent Effect values appear next to each entry.
test system: Mycobacterium tuberculosis; test: Cornell M. t heat shock assay; type: functional, organism-based; design: dose or concentration left out as unconfirmed; also: in the data most compounds retested in dose-response had high values
Screen size: about 69,000 compounds; about 950 (1.4%) showed an effect of 50% or more. What follows is part of a selection rich in strong results, with near analogues and random picks from the rest.
valueType: Percent Effect (%)

INSERT INTO assay_data (smilesrecord, assayvalue) VALUES
  ('O[C@@H]1CN(CC2=Cc3cc(Cl)ccc3OC2)CC[C@H]1N1CCCCCC1', 85.47),
  ('Cc1noc(C)c1C(=O)N1C[C@@H]2COC[C@]2(COc2ccccn2)C1.O=C(O)C(F)(F)F', -29.95),
  ('N#Cc1ccc(C(=O)N2CC[C@H]3[C@H]2CCN3CC2CCOCC2)cc1.O=C(O)C(F)(F)F', -36.11),
  ('COCCN1CCC2(CC1)CN(C(=O)c1ccco1)CCO2.O=C(O)C(F)(F)F', -23.42);

---

system: Mycobacterium tuberculosis; experiment: Cornell M. t heat shock assay; type: functional, organism-based; set-up: dose or concentration left out as unconfirmed; also: in the data most compounds retested in dose-response had high values
About 950 (1.4%) of roughly 69,000 compounds showed an effect of 50% or more. The sample as a whole holds a higher share of strong results than the screen did.
valueType: Percent Effect (%)

INSERT INTO results (molecule, valuetype, assayvalue) VALUES
  ('Fc1ccc(OCc2nnc([C@H]3CCN(Cc4ccncc4)C3)o2)cc1', 'Percent Effect', 43.75),
  ('Cl.O=C(Cn1c(-c2ccco2)cc2cccnc21)N1CCCC1', 'Percent Effect', 2.747),
  ('Cc1cnccc1-c1cnn(CCNC(=O)c2ccccn2)c1C1CC1.Cl', 'Percent Effect', 22.13),
  ('CNC(=O)CNCc1c[nH]nc1-c1cc2ccccc2o1.Cl', 'Percent Effect', 4.817),
  ('O=C(O)C(F)(F)F.O=C(O)C(F)(F)F.O=C(O)C(F)(F)F.O=C1CO[C@@H]2CN(Cc3cccnc3)C[C@H]2N1Cc1ccncc1', 'Percent Effect', -18.69),
  ('CCCc1cc(=O)[nH]c(-n2nc(-c3cccs3)cc2N)n1', 'Percent Effect', 106.1),
  ('O=C1CSc2ccccc2N1CC(=O)N1CCCCC1c1nccs1 (configuration not stated)', 'Percent Effect', 95.25),
  ('NC1(c2nc(-c3ccccc3)cc(=O)[nH]2)CCCCC1', 'Percent Effect', 0.6123),
  ('Cl.NC(=O)COc1ccc(CNCc2ccc(F)cc2)cc1', 'Percent Effect', -18.87),
  ('CC/N=c1\c(NC(=O)C(C)(C)C)c(O)oc2ccccc12', 'Percent Effect', -10.16),
  ('Cc1noc(C)c1CNc1c(N2CCCC2)cccc1N1CCCC1', 'Percent Effect', 65.01),
  ('Cc1cccn2cc(CN3CCCC(c4noc(C5CC5)n4)C3)nc12 (configuration not stated)', 'Percent Effect', 100.9);

---

system: Mycobacterium tuberculosis; assay: Cornell M. t heat shock assay; type: functional, organism-based; set-up: dose or concentration left out as unconfirmed; also: in the data most compounds retested in dose-response had high values
About 950 (1.4%) of roughly 69,000 compounds showed an effect of 50% or more. The entries come from a sample that favours strong results as a whole.
valueType: Percent Effect

INSERT INTO results (compound, valuetype, assayvalue) VALUES
  ('CC(NC(=O)Nc1nccs1)C(=O)NC1CCCC1 (stereo not drawn)', 'Percent Effect', '1.171%'),
  ('Cl.O=C(N1CCCC1)C1(Cc2ccc(-c3cccs3)cc2)CCNC1 (stereo not drawn)', 'Percent Effect', '-20.63%'),
  ('Cl.c1cnc(Nc2cc(CCC3CCCNC3)ccn2)cn1 (stereo not drawn)', 'Percent Effect', '5.615%'),
  ('CC(C)c1cc(NCC(C)N2CCCC2)n2nccc2n1 (stereo not drawn)', 'Percent Effect', '19.07%'),
  ('CC(C)NC(=O)c1csc(NC2CC2)n1', 'Percent Effect', '28.59%'),
  ('CCC(CN1CCN(C)CC1)NC(=O)C1(c2cccc(F)c2)CC1.O=C(O)CC(O)(CC(=O)O)C(=O)O (stereo not drawn)', 'Percent Effect', '1.881%'),
  ('CC(C)c1cc(NCC(O)c2ccccn2)n2nccc2n1 (stereo not drawn)', 'Percent Effect', '105.1%'),
  ('CCc1nc(N)nc(N2CCCC3(CN(C)C(=O)O3)C2)c1C (stereo not drawn)', 'Percent Effect', '-1.052%'),
  ('COc1cccc(C(=O)N2CCOC3(CCCN(C(C)=O)C3)C2)c1 (stereo not drawn)', 'Percent Effect', '5.566%'),
  ('Cc1ccc(CN(CCCn2ccnc2)Cc2ccccc2O)s1.O=C(O)CC(O)(CC(=O)O)C(=O)O', 'Percent Effect', '35.85%'),
  ('Cc1ccc(CN(CCCO)Cc2nc3ccccc3[nH]2)s1', 'Percent Effect', '-17.57%'),
  ('CCCC(CNc1cc(C(C)C)nc2ccnn12)N(C)C (stereo not drawn)', 'Percent Effect', '105.9%'),
  ('Nc1cc(CCC2CN(Cc3ccc4cc[nH]c4c3)CCO2)ccn1 (stereo not drawn)', 'Percent Effect', '-29.21%'),
  ('COc1ccccc1C(=O)N1CCOC2(CCCN(C(C)=O)C2)C1 (stereo not drawn)', 'Percent Effect', '71.6%'),
  ('Cc1cc2nc(C(C)C)cc(NCCc3cccn3C)n2n1', 'Percent Effect', '51.31%'),
  ('CCN(CC)C(=O)CCCNC(=O)c1csc(NC2CC2)n1', 'Percent Effect', '-1.337%'),
  ('c1ccc(COc2ccccc2CNC2CCc3ncnn3C2)cc1 (stereo not drawn)', 'Percent Effect', '4.249%'),
  ('CC(=O)N1CCCC2(C1)CN(C(=O)c1ccncc1)CCO2 (stereo not drawn)', 'Percent Effect', '-1.478%'),
  ('O=C(COCCc1ccccc1)N1CCCC(n2cccn2)C1 (stereo not drawn)', 'Percent Effect', '11.3%'),
  ('Cn1cc(C2CC(=O)NC23CCN(Cc2ccncc2)CC3)cn1.O=C(O)C(F)(F)F.O=C(O)C(F)(F)F (stereo not drawn)', 'Percent Effect', '-12.84%'),
  ('CC(=O)Nc1nc(C(=O)NCc2ccc(N3CCCC3)nc2)cs1', 'Percent Effect', '-13.06%'),
  ('COc1nn(C)c2c1CCCN(C(=O)c1cccc(C)n1)C2.O=C(O)C(F)(F)F', 'Percent Effect', '26.28%'),
  ('c1ccc(OCc2ccncc2)c(CNC2CCc3ncnn3C2)c1 (stereo not drawn)', 'Percent Effect', '14.47%'),
  ('CN(C)CCN1C(=O)CCC12CCCN(C(=O)N(C)C)CC2.O=C(O)C(F)(F)F (stereo not drawn)', 'Percent Effect', '-13.38%'),
  ('COc1cc(NCC(c2ccccn2)N(C)C)ncn1 (stereo not drawn)', 'Percent Effect', '7.48%'),
  ('O=C(Nc1ccccc1)N1C(CO)[C@]2(O)CC[C@H]1CC2 (stereo partly drawn)', 'Percent Effect', '-13.23%'),
  ('Cc1cc2nc(C(C)C)cc(NCCc3ccncc3)n2n1', 'Percent Effect', '5.483%'),
  ('Cc1ccc(O)c(CN(CCCn2ccnc2)Cc2ccc(C)s2)c1.O=C(O)CC(O)(CC(=O)O)C(=O)O', 'Percent Effect', '105.6%'),
  ('Cc1cccc(NC(=O)c2csc(NCC(C)C)n2)n1', 'Percent Effect', '-0.3454%'),
  ('CC(=O)Nc1nc(C(=O)NCc2ccc(N3CCCCCC3)nc2)cs1', 'Percent Effect', '8.395%'),
  ('CCN1CCn2c(C)cnc2C12CCN(C(=O)c1ccco1)CC2.O=C(O)C(F)(F)F.O=C(O)C(F)(F)F', 'Percent Effect', '-2.925%'),
  ('CN(C)c1ccc(CN(CCCn2ccnc2)Cc2c[nH]cn2)cc1.O=C(O)CC(O)(CC(=O)O)C(=O)O', 'Percent Effect', '16.53%'),
  ('Cc1ccc(CN[C@@H]2COC[C@H]2Cc2cc(C)no2)cc1.O=C(O)CC(O)(CC(=O)O)C(=O)O', 'Percent Effect', '0.5554%'),
  ('c1cncc(COc2ccccc2CNC2CCc3ncnn3C2)c1 (stereo not drawn)', 'Percent Effect', '103.3%'),
  ('Fc1ccc(CN2CCC3(CC2)CC(c2cccnc2)CO3)cc1.O=C(O)C(F)(F)F.O=C(O)C(F)(F)F (stereo not drawn)', 'Percent Effect', '-26.17%'),
  ('CC(=O)Nc1nc(C(=O)Nc2ccc(N3CCCCC3)nc2)cs1', 'Percent Effect', '50.82%'),
  ('O=C1NCC2(CCCN(C(=O)CCn3cnc4ccccc43)CC2)O1 (stereo not drawn)', 'Percent Effect', '-31.86%'),
  ('Cc1cc2nc(C(C)C)cc(NCc3ccncc3)n2n1', 'Percent Effect', '10.36%');
